Recorded Ki by entry
Target: dopamine D1-receptors (Rattus norvegicus)
Construct: The striata were dissected out, weighed and homogenised in 25 volumes of tris buffer
Sequence (P18901 whole entry): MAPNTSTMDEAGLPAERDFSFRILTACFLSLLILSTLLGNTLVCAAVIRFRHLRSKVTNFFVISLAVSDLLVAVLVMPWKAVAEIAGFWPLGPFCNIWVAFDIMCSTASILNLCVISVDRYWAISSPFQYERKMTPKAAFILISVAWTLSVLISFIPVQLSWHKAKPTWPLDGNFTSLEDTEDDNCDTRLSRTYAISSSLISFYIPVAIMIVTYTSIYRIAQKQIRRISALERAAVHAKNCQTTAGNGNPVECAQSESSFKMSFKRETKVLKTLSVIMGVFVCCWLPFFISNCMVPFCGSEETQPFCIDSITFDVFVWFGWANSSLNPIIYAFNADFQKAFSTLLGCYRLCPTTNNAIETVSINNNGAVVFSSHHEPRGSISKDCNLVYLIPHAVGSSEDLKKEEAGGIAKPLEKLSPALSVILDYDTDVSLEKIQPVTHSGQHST
Assay: affinity for dopamine D1-receptors by displacement experiments with [3H]-Sch 23390
Give just the number in nM; leave the unit off.

Query string: // lookup Ki for Nc1nc2c(s1)CCN(CC=Cc1ccccc1OCc1ccccc1)CC2
Result string: 400

Query string: // lookup Ki for Nc1nc2c(s1)CCN(CC=Cc1cccc3ccccc13)CC2
Result string: 210

Query string: // lookup Ki for C=CCN1CCc2nc(N)sc2CC1 [Compound A, reference compound]
Result string: 12000

Query string: // lookup Ki for Nc1nc2c(s1)CCN(CC=Cc1cc3ccccc3cn1)CC2 [Example 24a]
Result string: 3000

Query string: // lookup Ki for Nc1nc2c(s1)CCN(CC=Cc1ccccc1N1CCCCC1)CC2 [Example 11p]
Result string: 920

Query string: // lookup Ki for Nc1nc2c(s1)CCN(Cc1ccc(Cl)cc1)CC2 [Compound B, reference compound]
Result string: 11000

Query string: // lookup Ki for Nc1nc2c(s1)CCN(CCC=Cc1ccccc1)CC2
Result string: 510

Query string: // lookup Ki for Nc1nc2c(s1)CCN(CCc1ccccc1)CC2 [Compound C, reference compound]
Result string: 11000

New cases:
Query string: // lookup Ki for Nc1nc2c(s1)CCN(CC=Cc1cccc(OCc3ccccc3)c1)CC2
Result string: 1500

Query string: // lookup Ki for Nc1nc2c(s1)CCN(CC=Cc1nccc3ccccc13)CC2
Result string: 180

Query string: // lookup Ki for Nc1nc2c(s1)CCN(CC1=Cc3ccccc3CC1)CC2
Result string: 800
